system: Anti-CD28 scFv (VH - linker 1 - VL) (biotinylated (site not stated))
Sequence (scFv, as listed by the source): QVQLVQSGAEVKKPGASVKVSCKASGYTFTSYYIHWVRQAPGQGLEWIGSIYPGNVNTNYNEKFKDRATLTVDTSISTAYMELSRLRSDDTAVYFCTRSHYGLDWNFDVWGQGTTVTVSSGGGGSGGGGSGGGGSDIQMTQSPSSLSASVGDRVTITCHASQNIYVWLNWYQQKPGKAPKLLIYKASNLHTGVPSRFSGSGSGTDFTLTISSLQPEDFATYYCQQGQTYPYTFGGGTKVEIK
measurement_description: phage binding ELISA; biotinylated anti-CD28 scFv on neutravidin plate, clonal phage supernatant, anti-M13 HRP detection
Where no end group is shown, it is not given here.
measured_endpoint: CD28 scFv signal

[[record]]
binder = "MAWCPVYLWHECFN (peptide, not shown: large carriers) [Phage-47 clonal phage peptide]"
data_value = 2.27

[[record]]
binder = "QDWCPRHMWSFCFH (peptide, not shown: large carriers, cysteine pairing not given here; also: displayed on phage by fusion to pIII, linker and pIII sequence not given here) [Phage-55 clonal phage peptide]"
data_value = 0.074

[[record]]
binder = "MHWCPIDLWAECYA (peptide, not shown: large carriers, cysteine pairing not given here; also: displayed on phage, fused to pIII) [Phage-46 clonal phage peptide]"
data_value = 2.28

[[record]]
binder = "MDWCPRHRWVDCFY (peptide, not shown: large carriers) [Phage-57 clonal phage peptide]"
data_value = 0.478

[[record]]
binder = "MAWCPRDKWSECFS (peptide, not shown: large carriers) [Phage-41 clonal phage peptide]"
data_value = 0.853

[[record]]
binder = "MDWCPRPLWHECFS (peptide, not shown: large carriers) [Phage-45 clonal phage peptide]"
data_value = 2.35

[[record]]
binder = "MDWCPIALWAECFN (peptide, not shown: large carriers) [Phage-44 clonal phage peptide]"
data_value = 2.46

[[record]]
binder = "MHWCPMDQWSNCFN (peptide, not shown: large carriers) [Phage-56 clonal phage peptide]"
data_value = 0.515

[[record]]
binder = "IDWCPRYLWDECYN (peptide, not shown: large carriers) [Phage-48 clonal phage peptide]"
data_value = 2.24

[[record]]
binder = "MHWCPIDRWADCFN (peptide, not shown: large carriers) [Phage-58 clonal phage peptide]"
data_value = 0.287

[[record]]
binder = "MVSCPTTMWNRCFN (peptide, not shown: large carriers) [Phage-61 clonal phage peptide]"
data_value = 1.33

[[record]]
binder = "MDWCPRTLWYLCFN (peptide, not shown: large carriers) [Phage-60 clonal phage peptide]"
data_value = 2.59

[[record]]
binder = "MDWCPMHLWNKCFN (peptide, not shown: large carriers, cysteine pairing not given here; also: displayed on phage by fusion to pIII, linker and pIII sequence not given here) [Phage-53 clonal phage peptide]"
data_value = 1.04

